Biological target: synaptosomal reuptake of dopamine ([3H]-DA) (Rattus norvegicus, UniProt P23977)
Sequence (P23977 whole entry): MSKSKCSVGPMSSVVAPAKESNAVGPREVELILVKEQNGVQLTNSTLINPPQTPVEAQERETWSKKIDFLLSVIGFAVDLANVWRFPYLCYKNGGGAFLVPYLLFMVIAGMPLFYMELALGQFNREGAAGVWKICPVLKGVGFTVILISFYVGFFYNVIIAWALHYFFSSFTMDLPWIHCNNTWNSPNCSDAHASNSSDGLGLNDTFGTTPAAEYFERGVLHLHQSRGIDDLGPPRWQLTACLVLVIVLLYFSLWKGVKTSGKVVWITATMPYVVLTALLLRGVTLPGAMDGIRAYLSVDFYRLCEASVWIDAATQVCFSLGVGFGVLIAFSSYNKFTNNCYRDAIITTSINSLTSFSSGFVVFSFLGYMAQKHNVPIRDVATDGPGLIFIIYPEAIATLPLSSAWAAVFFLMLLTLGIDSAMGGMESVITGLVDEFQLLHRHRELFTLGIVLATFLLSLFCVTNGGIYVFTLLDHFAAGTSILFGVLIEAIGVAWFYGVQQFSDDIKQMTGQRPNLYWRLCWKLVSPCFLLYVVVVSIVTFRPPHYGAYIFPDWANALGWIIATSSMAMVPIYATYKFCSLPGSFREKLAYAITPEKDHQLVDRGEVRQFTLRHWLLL
Experiment: synaptosomal reuptake of dopamine ([3H]-DA), striatum synaptosomes
Details: synaptosomes from striatum; HP4 3×10^−4-3×10^−11 g/mL; read-out: IC50, synaptosomal uptake of DA
assay-endpoint: IC50

Which measured IC50 value corresponds to "CC(C)C(=O)C1=C(O)C(C)(C)C(O)=C(Cc2c(O)c3c(c(C(=O)C(C)C)c2O)OC(C)(C)C=C3)C1=O" ?
90 nM
